Exercise: state measured pEC50 for each of the compounds provided.
- tested system: FXR (Homo sapiens (Human))
- test: transient human FXR/Gal4-luciferase reporter assay
- Type: cell-based
- run conditions: Gal4-hFXR LBD fusion in HEK293 reporter cells; relative to 8 μM GW-4064
One number for each entry, as −log10 of the molar value.

[
  {
    "smiles string": "CN(C)C(=O)Cc1ccc(/C=C/C23CCC(OCc4c(-c5c(Cl)cncc5Cl)noc4C4CC4)(CC2)CC3)cc1",
    "pEC50": 6.42
  },
  {
    "smiles string": "O=C(O)c1cn2c(n1)CN(CC13CCC(OCc4c(-c5c(Cl)cccc5Cl)noc4C4CC4)(CC1)CC3)CC2",
    "pEC50": 6.04
  }
]

Next:
# return recorded pEC50 for entry O=C(O)c1ccc(/C=C/C23CCC(OCc4c(-c5c(Cl)cncc5Cl)noc4C4CC4)(CC2)CC3)cc1
6.46

* * *

- tested system: FXR (Homo sapiens (Human), UniProt Q96RI1)
- Sequence (Q96RI1 262-486): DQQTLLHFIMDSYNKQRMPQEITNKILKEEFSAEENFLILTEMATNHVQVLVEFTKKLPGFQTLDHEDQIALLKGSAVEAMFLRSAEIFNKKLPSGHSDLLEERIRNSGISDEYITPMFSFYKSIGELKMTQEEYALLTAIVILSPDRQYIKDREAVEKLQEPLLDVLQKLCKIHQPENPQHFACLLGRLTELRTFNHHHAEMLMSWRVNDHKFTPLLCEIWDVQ
- test: FXR EC50 (FXR agonist activity reported with each example)
- Format: cell-based
pEC50: −log10 of the molar value.
Everything with pEC50 lower than 6 is false (0); everything else, including exactly 6, is true (1).

Solved entries:
[
  {
    "compound": "O=C(O)c1cc(-c2noc(C34CCC(OCc5c(-c6c(Cl)cncc6Cl)noc5C5CC5)(CC3)CC4)n2)ccc1C(F)(F)F [Example 254]",
    "tested system": "FXR (Homo sapiens (Human), UniProt Q96RI1)",
    "class label": "false (0)"
  },
  {
    "compound": "O=C(O)c1cn(CC23CCC(OCc4c(-c5c(Cl)cccc5Cl)noc4C4CC4)(CC2)CC3)nc1C(F)F [Example 268]",
    "tested system": "FXR (Homo sapiens (Human), UniProt Q96RI1)",
    "class label": "true (1)"
  },
  {
    "compound": "Cc1nc(OCC23CCC(OCc4c(-c5c(Cl)cncc5Cl)noc4C4CC4)(CC2)CC3)sc1C(=O)O [Example 318]",
    "tested system": "FXR (Homo sapiens (Human), UniProt Q96RI1)",
    "class label": "true (1)"
  },
  {
    "compound": "O=C(O)c1ccc(OC2CCCC2)c2nc(C34CCC(OCc5c(-c6c(Cl)cncc6Cl)noc5C5CC5)(CC3)CC4)ccc12 [Example 408]",
    "tested system": "FXR (Homo sapiens (Human), UniProt Q96RI1)",
    "class label": "true (1)"
  }
]

--- query ---
Evaluate COc1ccc(-c2noc(C34CCC(OCc5c(-c6c(Cl)cncc6Cl)noc5C5CC5)(CC3)CC4)n2)cc1C(=O)O [Example 69] : pEC50 at minimum 6?
true (1)

* * *

- tested system: FXR (Homo sapiens (Human))
- test: FXR EC50 (FXR agonist activity reported with each example)
- Format: cell-based
Exercise: state measured EC50 for each of the compounds provided.
Give bare numbers, in µM.

Parameters: items (list). Returns: EC50 for each item.
1. O=C(O)c1cc(F)c2nc(OCC34CCC(C=Cc5c(-c6c(Cl)cccc6Cl)noc5C5CC5)(CC3)CC4)sc2c1
2. COc1c(C#CC23CCC(OCc4c(-c5c(Cl)cncc5Cl)noc4C4CC4)(CC2)CC3)cccc1C(=O)O [Example 383]

1: 0.058; 2: 0.82

Parameters: items (list). Returns: EC50 for each item.
1. CCOc1cc(OCC23CCC(OCc4c(-c5c(Cl)cncc5Cl)noc4C4CC4)(CC2)CC3)cnc1C(=O)O
2. CC(C)Oc1ccc(C(=O)O)c2ccc(C34CCC(OCc5c(-c6c(Cl)cncc6Cl)noc5C5CC5)(CC3)CC4)nc12

1. 0.032
2. 0.014

Parameters: items (list). Returns: EC50 for each item.
1. O=C(O)c1cccc(-c2noc(C34CCC(OCc5c(-c6ccccc6C(F)(F)F)noc5C5CC5)(CC3)CC4)n2)c1
2. COc1ccc(C(=O)O)cc1-c1noc(C23CCC(COCc4c(-c5c(Cl)cncc5Cl)noc4C4CC4)(CC2)CC3)n1

[0.3, 5.4]

# return recorded EC50 for entry O=C(O)c1ccc2cc(C#CC34CCC(OCc5c(-c6c(Cl)cncc6Cl)noc5C5CC5)(CC3)CC4)ccc2n1
0.062

* * *

- tested system: FXR (Homo sapiens (Human), UniProt Q96RI1)
- test: FXR EC50 (FXR agonist activity reported with each example)
- Assay type: cell-based
Exercise: state measured pEC50 for each of the compounds provided.
Numbers only, as −log10 of the molar value.

Study these solved cases before continuing.
[
  {
    "smiles string": "O=C(O)c1ccc2nc(C34CCC(OCc5c(-c6ccccc6OC(F)(F)F)noc5C5CC5)(CC3)CC4)ncc2c1",
    "recorded value": 5.89
  },
  {
    "smiles string": "O=C(O)c1ccc2nc(C34CCC(/C=C/c5c(-c6c(Cl)cncc6Cl)noc5C5CC5)(CC3)CC4)sc2c1",
    "recorded value": 7.06
  },
  {
    "smiles string": "O=C(O)c1cc(C2CC2)c2cc(OCC34CCC(OCc5c(-c6c(Cl)cncc6Cl)noc5C5CC5)(CC3)CC4)cc(F)c2n1",
    "recorded value": 8.05
  },
  {
    "smiles string": "O=C(O)c1ccc2nc(OCC34CCC(OCc5c(-c6c(Cl)cncc6Cl)noc5C5CC5)(CC3)CC4)ccc2n1",
    "recorded value": 7.20
  },
  {
    "smiles string": "O=C(O)c1cc(-c2noc(C34CCC(OCc5c(-c6c(Cl)cncc6Cl)noc5C5CC5)(CC3)CC4)n2)cc(C(F)(F)F)n1",
    "recorded value": 6.74
  },
  {
    "smiles string": "O=C(O)c1cc(C(F)(F)F)c2cc(C#CC34CCC(OCc5c(-c6c(Cl)cncc6Cl)noc5C5CC5)(CC3)CC4)ccc2n1",
    "recorded value": 7.38
  }
]

Next:
# return recorded pEC50 for entry O=C(O)c1cccc(-c2noc(C34CCC(OCc5c(-c6ccccc6OC(F)(F)F)noc5C5CC5)(CC3)CO4)n2)c1
6.66

* * *

- tested system: FXR (Homo sapiens (Human), UniProt Q96RI1)
- test: FXR EC50 (FXR agonist activity reported with each example)
- Assay type: cell-based
assay readout: EC50 (nM)
Numbers only, in nM.

Study these solved cases before continuing.
[
  {
    "smiles string": "O=C(O)c1cc(OC2CC2)c2cc(OCC34CCC(OCc5c(-c6c(Cl)cncc6Cl)noc5C5CC5)(CC3)CC4)ccc2n1",
    "unit of measure": "nM",
    "EC50": 23
  },
  {
    "smiles string": "COc1cc(C#CC23CCC(OCc4c(-c5c(Cl)cncc5Cl)noc4C4CC4)(CC2)CC3)nc(C(=O)O)c1",
    "unit of measure": "nM",
    "EC50": 390
  },
  {
    "smiles string": "NC(=O)c1cccc(OCC23CCC(OCc4c(-c5c(Cl)cccc5Cl)noc4C4CC4)(CC2)CC3)n1",
    "unit of measure": "nM",
    "EC50": 310
  },
  {
    "smiles string": "O=C(O)c1cc(F)cc2nc(OCC34CCC(/C=C/c5c(-c6c(Cl)cncc6Cl)noc5C5CC5)(CC3)CC4)sc12",
    "unit of measure": "nM",
    "EC50": 190
  },
  {
    "smiles string": "N#Cc1ccc(C(=O)O)c2ccc(C34CCC(OCc5c(-c6c(Cl)cncc6Cl)noc5C5CC5)(CC3)CC4)nc12",
    "unit of measure": "nM",
    "EC50": 820
  },
  {
    "smiles string": "O=C(O)c1cc(-c2noc(C34CCC(/C=C/c5c(-c6c(Cl)cncc6Cl)noc5C5CC5)(CC3)CC4)n2)cc(C(F)(F)F)c1",
    "unit of measure": "nM",
    "EC50": 18
  }
]

# return recorded EC50 for entry O=C(O)c1csc(C23CCC(COCc4c(-c5c(Cl)cccc5Cl)noc4C4CC4)(CC2)CO3)n1
2000

* * *

Exercise: state measured pEC50 for each of the compounds provided.
- tested system: FXR (Homo sapiens (Human), UniProt Q96RI1)
- test: FXR EC50 (FXR agonist activity reported with each example)
- Type: cell-based
Give bare numbers, as −log10 of the molar value.

Parameters: items (list). Returns: pEC50 for each item.
1. O=C(O)c1cccc(OCC23CCC(OCc4c(-c5c(Cl)cncc5Cl)noc4C4CC4)(CC2)CC3)n1
2. O=C(O)c1ccc(-c2noc(C34CCC(C=Cc5c(-c6c(Cl)cccc6Cl)noc5C5CC5)(CC3)C4)n2)cc1
3. CC(C)Oc1cc(-c2noc(C34CCC(OCc5c(-c6c(Cl)cnn6C)noc5C5CC5)(CC3)CC4)n2)cc(C(=O)O)n1
4. CC(C)(C(=O)O)c1ccc(C23CCC(/C=C/c4c(-c5c(Cl)cncc5Cl)noc4C4CC4)(CC2)CO3)cc1
5. O=C(O)c1ccc2nc(C34CCC(OCc5c(-c6c(Cl)cccc6Cl)noc5C5CC5)(CC3)CC4)ccc2c1

7.04
6.38
6.05
6.02
7.08

Parameters: items (list). Returns: pEC50 for each item.
1. O=C(O)c1ccc(C2CC2)c2nc(C34CCC(OCc5c(-c6c(Cl)cncc6Cl)noc5C5CC5)(CC3)CC4)ccc12
2. COc1ccc(C#CC23CCC(OCc4c(-c5c(Cl)cncc5Cl)noc4C4CC4)(CC2)CC3)cc1C(=O)O

[7.89, 7.04]
